Quick reference: pKb of the listed items.
# Subject Of Test: Muscarinic acetylcholine receptor M1 (Homo sapiens) (UniProt P11229)
# Test Method Notes: Displacement of [3H]NMS from human M1 mAChR expressed in FlpIn-CHO cells after 4 hrs by microplate counting analysis
# Format: cell-based
# print the numeric value only

Worked set:
• O=C(CBr)Nc1ccc(Cn2cc(C(=O)O)c(=O)c3ccccc32)cc1 = 4.72
• O=C(O)c1cn(Cc2ccc(S(=O)(=O)F)cc2)c2ccccc2c1=O = 3.97
• O=C(O)c1cn(Cc2ccc(N=C=S)cc2)c2ccccc2c1=O = 5.22

IN: Quote Muscarinic acetylcholine receptor M1 (Homo sapiens) (UniProt P11229) pKb for entry O=C(O)c1cn(Cc2ccc(N3C(=O)C=CC3=O)cc2)c2ccccc2c1=O .
OUT: 5.09

* * *

# Subject Of Test: UniProtKB P11229
# Sequence (P11229 whole entry): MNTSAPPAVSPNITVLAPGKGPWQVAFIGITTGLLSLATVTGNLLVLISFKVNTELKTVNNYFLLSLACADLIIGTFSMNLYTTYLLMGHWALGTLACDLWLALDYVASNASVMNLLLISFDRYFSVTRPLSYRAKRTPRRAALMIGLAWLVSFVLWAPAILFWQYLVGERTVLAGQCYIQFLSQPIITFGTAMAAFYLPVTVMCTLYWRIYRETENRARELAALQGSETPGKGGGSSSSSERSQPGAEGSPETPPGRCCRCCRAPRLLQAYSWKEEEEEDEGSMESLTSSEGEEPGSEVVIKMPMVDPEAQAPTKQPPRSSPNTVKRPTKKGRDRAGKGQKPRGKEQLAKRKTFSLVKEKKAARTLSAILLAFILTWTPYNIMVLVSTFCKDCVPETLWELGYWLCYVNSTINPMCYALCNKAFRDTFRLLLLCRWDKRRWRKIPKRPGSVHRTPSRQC
# Test Method Notes: Activation of human M1 mAChR expressed in FlpIn-CHO cells assessed as […] ERK1/2 phosphorylation incubated for 5 mins by Alphascreen assay
Quick reference: pEC50 of the listed items.
API: returns pEC50 as number; meaning -log10 of concentration in mol/L.

Worked set:
• O=C(CBr)Nc1ccc(Cn2cc(C(=O)O)c(=O)c3ccccc32)cc1 = 5.80
• O=C(O)c1cn(Cc2ccc(N=C=S)cc2)c2ccccc2c1=O = 6.41
• O=C(O)c1cn(Cc2ccc(S(=O)(=O)F)cc2)c2ccccc2c1=O = 6.50

Next up:
IN: # return recorded pEC50 for input O=C(O)c1cn(Cc2ccc(N3C(=O)C=CC3=O)cc2)c2ccccc2c1=O
OUT: 6.38
